Taken from paper PMC8151276.

Biological target: C5AR1 (Homo sapiens, UniProt P21730)
Construct: purchased Promega (in-house HiBiT-GPCR construct library, NanoBRET)
Sequence (P21730 whole entry): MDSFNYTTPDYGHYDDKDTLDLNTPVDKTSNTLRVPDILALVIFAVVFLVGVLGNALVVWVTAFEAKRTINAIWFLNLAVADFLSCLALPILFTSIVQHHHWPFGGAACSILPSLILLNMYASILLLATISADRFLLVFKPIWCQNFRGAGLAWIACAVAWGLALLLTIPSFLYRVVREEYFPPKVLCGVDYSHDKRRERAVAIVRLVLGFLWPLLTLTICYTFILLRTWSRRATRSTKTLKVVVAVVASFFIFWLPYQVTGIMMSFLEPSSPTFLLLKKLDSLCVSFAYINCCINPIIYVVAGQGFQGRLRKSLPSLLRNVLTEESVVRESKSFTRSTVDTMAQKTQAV
Assay: NanoBRET screen HiBiT-C5AR1 in HEK293
Assay type: binding
Details: C5AR1; tracer 0.1μM

Compound	NanoBRET Fold Response
O=C(CCOCCOCCOCCOCCNC(=O)CCc1ccc2n1[B-](F)(F)[N+]1=C(c3ccc[nH]3)C=CC1=C2)NCCCN1CCN(C2=Nc3ccccc3Oc3ccc(Cl)cc32)CC1	1.01
O=C(CCc1ccc2n1[B-](F)(F)[N+]1=C(c3ccc[nH]3)C=CC1=C2)NCCOCCOCCNC(=O)OCCOCCN1CCN(C2=Nc3ccccc3Sc3ccccc32)CC1	1.07
COc1ccccc1N1CCN(CCCCN2C(=O)c3ccc(CNC(=O)CCOCCNC(=O)c4ccc(CNC(=O)CCc5ccc6n5[B-](F)(F)[N+]5=C(c7ccc[nH]7)C=CC5=C6)cc4)cc3C2=O)CC1	1.02
COc1ccccc1N1CCN(CCCCN2C(=O)c3ccc(CNC(=O)CCOCCOCCOCCOCCNC(=O)CCc4ccc5n4[B-](F)(F)[N+]4=C(c6ccc[nH]6)C=CC4=C5)cc3C2=O)CC1	1.03
Cc1nc2n(c(=O)c1CCN1CCC(c3noc4cc(F)ccc34)CC1)CCCC2OC(=O)NCCOCCOCCOCCOCCNC(=O)CCc1ccc2n1[B-](F)(F)[N+]1=C(c3ccc[nH]3)C=CC1=C2 (stereo not drawn)	0.95
N#CN=C(NCCCOc1cccc(CN2CCCCC2)c1)NCCNC(=O)CCOCCOCCOCCOCCNC(=O)CCc1ccc2n1[B-](F)(F)[N+]1=C(c3ccc[nH]3)C=CC1=C2	0.99
